Tested on: UACC-257
assay.text: NCI tumour cell line growth inhibition, 48 h
Active and inactive are the calls of the source. Cut-off read from the data, not from the text of the source: active = GI50 up to about 1.1 µM and inactive = higher.
Classes used: active, inactive

• COC(=O)[C@@]1(Cc2ccc(OC(C)=O)cc2)Cc2cc3ccccc3n2N1 = inactive
• COC(=O)c1ncc2c(=O)[nH]c3ccccc3c2c1C(=O)OC = inactive
• COc1ccc(-c2cc(=O)c3c(OC)c(O)c(OC)cc3o2)cc1 = inactive
• N#CN=C(N(Cc1ccccc1)Cc1ccccc1)N(Cc1ccccc1)Cc1ccccc1 = inactive
• CC1(C)CC(=O)C2(CC(CSc3ccccc3)C(CS(=O)(=O)c3ccccc3)C2)C(=O)C1 (stereo unspecified) = inactive
• CSC1=Nc2ccccc2N(C)c2c1c(-c1ccccc1)nn2C = inactive
• CCOC(=O)c1c2ccc(/C=C/c3ccccn3)ccc-2c(C(=O)OCC)c1N = inactive
• COc1cc2c(cc1O)CC[C@@H]1C2CC[C@@]2(C)C1CC[C@@H]2O (stereo partly specified) = inactive
• Nc1nc(Cl)c(N)c(NCC2(CO)CCC(OCc3ccccc3)C2)n1 (stereo unspecified) = active
• CCOC(=O)c1nc2ccccc2n(CC)c1=O = inactive
• CCOCN1COCN/C1=N/C#N = inactive
• [N-]=[N+]=CC(=O)OCCCCl = inactive
• O=C1/C(=C/c2ccco2)NC(=S)N1CN1CCOCC1 = inactive
• COC1=C(Br)[C@H](O)[C@@]2(C=C1Br)CC(C(=O)NCCCOc1c(Br)cc(C(O)CNC(C)=O)cc1Br)=NO2 (stereo partly specified) = inactive
• Cc1ccc(NC(=O)/C(=N\Nc2ccc([N+](=O)[O-])cc2[N+](=O)[O-])C2C(=O)NC(=O)NC2=O)cc1 = inactive
• O=[N+]([O-])/C=C/c1cn(CCCCCCCCn2cc(/C=C/[N+](=O)[O-])c3ccccc32)c2ccccc12 = inactive
• NC(=O)c1cn(C2OC(CO)C(O)C2O)c(=O)[nH]c1=O (stereo unspecified) = inactive
• COc1cc(C2c3cc4c(cc3C(NCC(O)CO)C3COC(=O)[C@H]23)OCO4)cc(OC)c1OC (stereo partly specified) = inactive
• CCN(CC)C(=O)c1ccc(C)c(/N=N/N(C)C)c1 = inactive
• COc1cc(CNNC(N)=S)cc(OC)c1OC = inactive
• N#Cc1ccccc1NC(=O)C(=O)C(C(=O)c1ccccc1-c1ccccc1)C1OC(=O)c2ccccc21 (stereo unspecified) = inactive
